Below is a list of entries, each paired with its recorded herbicidal effect rating, ORYSAT (rice tolerance) value.
# Tested on: Oryza sativa, (L.) Tebonnet
# measurement-protocol: Rice tolerance to post-transplant applications under flooded paddy conditions (Example 188), ORYSAT (Rice, Tebonnet)
# condition-label: Rate 0.1250 kg/ha, rated three to four weeks after treatment
parameter: herbicidal effect rating, ORYSAT (rice tolerance)

INSERT INTO assay_data (compound, observed_value) VALUES
  ('COc1ccc(I)cc1-c1nsc2ccc(-n3c(=O)cc(C(F)(F)F)n(C)c3=O)cc12', 1.0),
  ('COc1ccc(C)cc1-c1nsc2ccc(-n3c(=O)cc(C(F)(F)F)n(C)c3=O)cc12', 4.0),
  ('Cn1c(C(F)(F)F)cc(=O)n(-c2ccc3snc(-c4ccccc4)c3c2)c1=O', 7.0),
  ('CC(C)S(=O)(=O)NC(=O)c1nsc2ccc(-n3c(=O)cc(C(F)(F)F)n(C)c3=O)cc12', 3.0),
  ('Cc1cc(O)c(-c2nsc3ccc(-n4c(=O)cc(C(F)(F)F)n(C)c4=O)cc23)cc1C', 0.0),
  ('COc1cc(C)c(I)cc1-c1nsc2ccc(-n3c(=O)cc(C(F)(F)F)n(C)c3=O)cc12', 2.0),
  ('COc1cc(C)ccc1-c1nsc2ccc(-n3c(=O)cc(C(F)(F)F)n(C)c3=O)cc12', 7.0),
  ('COC(=O)COc1ccc(C)cc1-c1noc2ccc(-n3c(=O)cc(C(F)(F)F)n(C)c3=O)c(Cl)c12', 0.0),
  ('Cc1ccc(OCC(=O)OCC2(c3ccccc3)CC2)c(-c2nsc3ccc(-n4c(=O)cc(C(F)(F)F)n(C)c4=O)cc23)c1', 0.0),
  ('CON(C)C(=O)COc1ccccc1-c1nsc2ccc(-n3c(=O)cc(C(F)(F)F)n(C)c3=O)cc12', 6.0),
  ('CCCCC(=O)c1nsc2ccc(-n3c(=O)cc(C(F)(F)F)n(C)c3=O)cc12', 3.0),
  ('C#CCOC(=O)C(C)(C)Oc1ccc(C)cc1-c1nsc2ccc(-n3c(=O)cc(C(F)(F)F)n(C)c3=O)cc12', 2.0),
  ('Cc1nsc2ccc(-n3c(=O)cc(C(F)(F)F)n(C)c3=O)cc12', 9.0),
  ('COC(=O)C(C)Oc1ccc(C)cc1-c1nsc2ccc(-n3c(=O)cc(C(F)(F)F)n(C)c3=O)cc12 (stereo not shown)', 3.0),
  ('CCC(C#N)(CC)c1nsc2ccc(-n3c(=O)cc(C(F)(F)F)n(C)c3=O)cc12', 7.0),
  ('COC(=O)C(C)Oc1cc(C)c(C)cc1-c1nsc2ccc(-n3c(=O)cc(C(F)(F)F)n(C)c3=O)cc12 (stereo not shown)', 4.0),
  ('CC(C)Oc1cccc(-c2nsc3ccc(-n4c(=O)cc(C(F)(F)F)n(C)c4=O)cc23)c1', 4.0),
  ('COc1c(-c2nsc3ccc(-n4c(=O)cc(C(F)(F)F)n(C)c4=O)cc23)ccc(C)c1C', 6.0),
  ('COc1ccc(OC)c(-c2nsc3ccc(-n4c(=O)cc(C(F)(F)F)n(C)c4=O)cc23)c1', 6.0);

* * *

# System: Oryza sativa, (L.) Tebonnet
# measurement-protocol: Rice tolerance to post-transplant applications under flooded paddy conditions (Example 187), ORYSAT (Rice, Tebonnet)
# condition-label: Rate 0.2500 kg/ha, rated three to four weeks after treatment
Below is a list of entries, each paired with its recorded ORYSAT herbicidal effect rating value.
parameter: ORYSAT herbicidal effect rating

INSERT INTO results (molecule, parameter, observed_value) VALUES
  ('COC(=O)COc1ccc(-c2nsc3ccc(-n4c(=O)cc(C(F)(F)F)n(C)c4=O)cc23)cc1 [Example 257]', 'ORYSAT herbicidal effect rating', 2.0),
  ('Cn1c(C(F)(F)F)cc(=O)n(-c2ccc3snc(/C=C/C=O)c3c2)c1=O [Example 291]', 'ORYSAT herbicidal effect rating', 0.0),
  ('C=CCCOCc1nsc2ccc(-n3c(=O)cc(C(F)(F)F)n(C)c3=O)cc12 [Example 223]', 'ORYSAT herbicidal effect rating', 9.0),
  ('CNC.Cn1c(C(F)(F)F)cc(=O)n(-c2ccc3snc(COCC(=O)NS(C)(=O)=O)c3c2)c1=O [Example 295]', 'ORYSAT herbicidal effect rating', 0.0),
  ('Cn1c(C(F)(F)F)cc(=O)n(-c2ccc3snc(COCCCCl)c3c2)c1=O [Example 224]', 'ORYSAT herbicidal effect rating', 9.0),
  ('Cn1c(C(F)(F)F)cc(=O)n(-c2ccc3snc(C=C(Cl)Cl)c3c2)c1=O [Example 287]', 'ORYSAT herbicidal effect rating', 5.0),
  ('Cn1c(C(F)(F)F)cc(=O)n(-c2ccc3snc(C=C(F)Br)c3c2)c1=O [Example 286]', 'ORYSAT herbicidal effect rating', 2.0),
  ('C=C(C(=O)OC)C(C)OCc1nsc2ccc(-n3c(=O)cc(C(F)(F)F)n(C)c3=O)cc12 (stereo not shown) [Example 212]', 'ORYSAT herbicidal effect rating', 7.0),
  ('COC(=O)COc1c(-c2nsc3ccc(-n4c(=O)cc(C(F)(F)F)n(C)c4=O)cc23)ccc(C)c1C [Example 274]', 'ORYSAT herbicidal effect rating', 8.0),
  ('Cn1c(C(F)(F)F)cc(=O)n(-c2ccc3snc(COCC(=O)NS(C)(=O)=O)c3c2)c1=O [Example 294]', 'ORYSAT herbicidal effect rating', 0.0),
  ('Cn1c(C(F)(F)F)cc(=O)n(-c2ccc3snc(CSCC(=O)O)c3c2)c1=O [Example 283]', 'ORYSAT herbicidal effect rating', 5.0),
  ('Cc1ccc(OCC(=O)NS(=O)(=O)c2sc3ccc(Cl)cc3c2C)c(-c2nsc3ccc(-n4c(=O)cc(C(F)(F)F)n(C)c4=O)cc23)c1 [Example 290]', 'ORYSAT herbicidal effect rating', 0.0),
  ('Cn1c(C(F)(F)F)cc(=O)n(-c2ccc3snc(C(Br)C#N)c3c2)c1=O (stereo not shown) [Example 264]', 'ORYSAT herbicidal effect rating', 5.0),
  ('COC(=O)C(C)Oc1c(-c2nsc3ccc(-n4c(=O)cc(C(F)(F)F)n(C)c4=O)cc23)ccc(C)c1C (stereo not shown) [Example 275]', 'ORYSAT herbicidal effect rating', 4.0),
  ('CNC.Cn1c(C(F)(F)F)cc(=O)n(-c2ccc3snc(COCC(=O)O)c3c2)c1=O [Example 296]', 'ORYSAT herbicidal effect rating', 2.0),
  ('COc1c(-c2nsc3ccc(-n4c(=O)cc(C(F)(F)F)n(C)c4=O)cc23)ccc(C)c1C [Example 267]', 'ORYSAT herbicidal effect rating', 6.0);
